Recorded measurements of IC50, one per entry
- assay-system: Kinesin-like protein KIF18A (Homo sapiens, UniProt Q8NI77)
- Sequence (Q8NI77 whole entry): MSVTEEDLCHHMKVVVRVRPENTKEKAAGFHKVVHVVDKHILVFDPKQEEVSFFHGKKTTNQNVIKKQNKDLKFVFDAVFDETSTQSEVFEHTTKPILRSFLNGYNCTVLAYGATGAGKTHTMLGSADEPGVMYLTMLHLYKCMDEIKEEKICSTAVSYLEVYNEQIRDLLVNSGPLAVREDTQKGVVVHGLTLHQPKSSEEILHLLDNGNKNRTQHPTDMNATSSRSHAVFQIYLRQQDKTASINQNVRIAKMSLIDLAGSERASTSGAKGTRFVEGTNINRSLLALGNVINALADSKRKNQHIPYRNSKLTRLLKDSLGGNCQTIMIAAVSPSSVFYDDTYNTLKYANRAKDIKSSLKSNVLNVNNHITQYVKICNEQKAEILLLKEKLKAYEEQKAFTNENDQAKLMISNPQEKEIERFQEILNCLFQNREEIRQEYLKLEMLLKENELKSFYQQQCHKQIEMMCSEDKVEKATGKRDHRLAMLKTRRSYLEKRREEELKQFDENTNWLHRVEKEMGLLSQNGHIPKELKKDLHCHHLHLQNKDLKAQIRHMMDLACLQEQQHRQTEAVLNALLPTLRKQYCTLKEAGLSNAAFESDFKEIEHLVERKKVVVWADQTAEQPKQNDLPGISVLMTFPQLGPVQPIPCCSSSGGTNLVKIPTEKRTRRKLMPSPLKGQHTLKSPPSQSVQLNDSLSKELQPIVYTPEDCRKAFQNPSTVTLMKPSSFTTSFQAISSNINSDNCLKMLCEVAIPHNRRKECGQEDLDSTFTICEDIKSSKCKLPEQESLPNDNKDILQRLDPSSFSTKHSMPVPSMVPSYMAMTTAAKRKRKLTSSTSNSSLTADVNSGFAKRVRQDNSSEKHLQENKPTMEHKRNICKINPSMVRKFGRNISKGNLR
- assay: Assay of the Inhibitory Effects on KIF18A Activity In Vitro (ADP-Glo Assay)
- Method: Experimental Method 1. Preparation of 30 mL of reaction buffer: (1) 450 μL 1M Tris-HCl (pH=7.5)+300 μL 1M MgCl2+30 μL 10% Pluronic F-68 (ThermoFisher, 24040032-100 ml); (2) adjusting pH to 7.5, and adding water to adjust the volume to 30 mL. 2. […] Luminescence values were measured using the EnVision Xcite Multilabel Reader (PerkinElmer, 2105-0020).

COC1c2cc3c(NC(=O)c4ccc(NS(=O)(=O)CCO)cc4N4CCC(=C(F)F)CC4)ccc(C#N)c3n2CCC1(F)F (centres undefined) [US20260070887, Example 427] | < 50 nM

Now consider the entry below.
Query: Observed IC50 on Kinesin-like protein KIF18A (Homo sapiens, UniProt Q8NI77) for CC1(C)Cn2c(cc3c(NC(=O)c4cnc(NS(=O)(=O)CCO)cc4N4CCC5(CC4)CC5)cccc32)CO1 [US20260070887, Example 454] , please.
Response: < 50 nM
